Target: Recombinant human TDO comprising amino acids 19-407 (Homo sapiens (Human), UniProt P48775)
Sequence (P48775 19-406 limits assumed): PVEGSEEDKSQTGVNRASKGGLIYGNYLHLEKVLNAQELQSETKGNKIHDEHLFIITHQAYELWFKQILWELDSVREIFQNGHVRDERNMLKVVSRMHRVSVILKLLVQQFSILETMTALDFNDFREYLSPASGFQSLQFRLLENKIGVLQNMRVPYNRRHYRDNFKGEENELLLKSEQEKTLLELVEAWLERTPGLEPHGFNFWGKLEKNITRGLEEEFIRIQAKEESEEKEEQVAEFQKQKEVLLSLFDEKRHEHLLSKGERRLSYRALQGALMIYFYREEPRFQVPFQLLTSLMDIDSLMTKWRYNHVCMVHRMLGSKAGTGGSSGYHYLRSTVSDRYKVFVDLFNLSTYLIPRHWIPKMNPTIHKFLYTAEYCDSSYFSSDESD
Experiment: TDO2 enzymatic assay (TDO inhibitory activity)
Assay type: biochemical
Settings: 15 nM enzyme, 200 μM L-tryptophan, pH7, 30 min pre-incubation, NFK quantified by LCMS; mean values if measured multiple times; read-out: hTDO activity (IC50 in nM)
Decide using IC50 alone. Strictly below 500 nM: yes. Equal to or above 500 nM: no.

INSERT INTO measurements (molecule, target_entity, label_value) VALUES
  ('OC(c1c(C2(F)CC2)sc2cncn12)C1CCCCC1 (racemic) [Example 184]', 'Recombinant human TDO comprising amino acids 19-407 (Homo sapiens (Human), UniProt P48775)', 'no'),
  ('OC(c1c[nH]nn1)c1c(C2CC2)sc2cncn12 (racemic) [Example 200]', 'Recombinant human TDO comprising amino acids 19-407 (Homo sapiens (Human), UniProt P48775)', 'no'),
  ('O[C@H](c1c(Cl)sc2cncn12)C1CCCCC1 [Example 13a]', 'Recombinant human TDO comprising amino acids 19-407 (Homo sapiens (Human), UniProt P48775)', 'yes'),
  ('CC1CCCC1C(O)c1c(C2CC2)sc2cncn12 (stereo not drawn) [Example 48]', 'Recombinant human TDO comprising amino acids 19-407 (Homo sapiens (Human), UniProt P48775)', 'yes'),
  ('OC(CC1CCC(c2ccccc2)CC1)c1c(C2CC2)sc2cncn12 (racemic) [Example 37]', 'Recombinant human TDO comprising amino acids 19-407 (Homo sapiens (Human), UniProt P48775)', 'no'),
  ('OC(CC1CCC(c2ccccc2)C1)c1c(C2CC2)sc2cncn12 (stereo not drawn) [Example 35]', 'Recombinant human TDO comprising amino acids 19-407 (Homo sapiens (Human), UniProt P48775)', 'no'),
  ('OC(CC1CCC(C(F)(F)F)CC1)c1c(C2CC2)sc2cncn12 (racemic) [Example 42]', 'Recombinant human TDO comprising amino acids 19-407 (Homo sapiens (Human), UniProt P48775)', 'no'),
  ('CCc1sc2cncn2c1[C@@H](O)CC1CCCCC1 [Example 100a]', 'Recombinant human TDO comprising amino acids 19-407 (Homo sapiens (Human), UniProt P48775)', 'yes');
